system_tested: full length Keap1 protein / full length NRF2 protein (Homo sapiens, UniProt Q14145)
Construct: full length NRF2 protein and full length Keap1 protein (Keap1 exists a dimer) are used; His
Sequence (Q14145 whole entry): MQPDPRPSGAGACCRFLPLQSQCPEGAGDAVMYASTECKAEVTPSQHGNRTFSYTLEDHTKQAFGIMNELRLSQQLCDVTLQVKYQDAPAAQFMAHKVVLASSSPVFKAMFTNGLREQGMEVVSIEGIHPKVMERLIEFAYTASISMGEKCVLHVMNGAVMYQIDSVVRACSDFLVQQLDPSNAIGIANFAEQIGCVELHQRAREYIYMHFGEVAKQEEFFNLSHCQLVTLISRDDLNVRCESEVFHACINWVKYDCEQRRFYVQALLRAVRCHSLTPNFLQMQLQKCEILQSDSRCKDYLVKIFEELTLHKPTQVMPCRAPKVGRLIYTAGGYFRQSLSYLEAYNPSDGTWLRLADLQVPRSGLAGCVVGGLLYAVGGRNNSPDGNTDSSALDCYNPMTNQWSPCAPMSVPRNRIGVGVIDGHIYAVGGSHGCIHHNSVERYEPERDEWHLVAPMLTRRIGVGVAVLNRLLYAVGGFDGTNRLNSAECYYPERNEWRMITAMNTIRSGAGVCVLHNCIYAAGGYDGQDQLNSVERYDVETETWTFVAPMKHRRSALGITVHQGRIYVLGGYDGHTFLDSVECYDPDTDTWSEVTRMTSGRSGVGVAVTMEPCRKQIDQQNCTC
measurement_description: NRF2-Keap1 TR-FRET Low Protein Assay
Assay type: binding
reported_conditions: 1.25 nM Keap1 FlagHis and 2.5 nM biotin-NRF2 added
recorded_metric: IC50

Example entries and their recorded answers appear below.
>>> reported_result("C[C@H](Oc1cccc(-c2cccc(-n3ncc(C(=O)O)c3[C@@H]3C[C@H]3c3cn(CCN(C)C)nn3)c2)c1)C1CCCCC1 (racemic)")
"10 to 100 nM"
>>> reported_result("C[C@H](Oc1cccc(-c2cccc(-n3ncc(C(=O)O)c3[C@@H]3C[C@H]3c3cn(C)nn3)c2)c1)C1CCCCC1")
"< 10 nM"

# query: IC50 | item CC[C@@H]1CN(Cc2cccc(-c3cccc(-n4ncc(C(=O)O)c4[C@@H]4C[C@H]4c4cn(C)nn4)c3)c2)Cc2ccccc2O1 | system: full length Keap1 protein / full length NRF2 protein (Homo sapiens, UniProt Q14145)
< 10 nM

# query: IC50 | item CCC[C@@H]1CCCCN1C(=O)c1cccc(-c2cc(C)cc(-n3ncc(C(=O)O)c3[C@@H]3C[C@H]3c3cn(C)nn3)c2)c1 (single isomer, unassigned) | system: full length Keap1 protein / full length NRF2 protein (Homo sapiens, UniProt Q14145)
< 10 nM

# query: IC50 | item CC1(C)CCc2cnn(-c3cccc(-c4cccc(-n5ncc(C(=O)O)c5C5CC5)c4)c3)c21 | system: full length Keap1 protein / full length NRF2 protein (Homo sapiens, UniProt Q14145)
10 to 100 nM

# query: IC50 | item Cn1cc([C@H]2C[C@@H]2c2c(C(=O)O)cnn2-c2cccc(-c3cccc(-n4ncc5c4C(C)(C)CC5)c3)c2)nn1 (stereo in doubt) | system: full length Keap1 protein / full length NRF2 protein (Homo sapiens, UniProt Q14145)
< 10 nM
